# Tested on: Staphylococcus aureus Sa2 (MRSA, cystic fibrosis isolate)
# experiment_description: growth reduction vs untreated control (OD550); higher = stronger antibacterial activity
# test_settings: 0.1 mM; 24 h
Counter-ions that a name gives are not always drawn.
experimental_readout: growth reduction
Write the figure, then the unit, nothing else.

Ask: Identify measured growth reduction obtained with Staphylococcus aureus Sa2 (MRSA, cystic fibrosis isolate) for Cc1cc(CC(C)CC(C)(C)C)n(O)c(=O)c1 (centres undefined) [Piroctone olamine] .
Result: 100%

Ask: Under Staphylococcus aureus Sa2 (MRSA, cystic fibrosis isolate): report growth reduction of Cc1ccc2c(=O)c3cccc(CC(=O)O)c3oc2c1C [Vadimezan] .
Result: 100%

Ask: Give Staphylococcus aureus Sa2 (MRSA, cystic fibrosis isolate) growth reduction for the following compound: COc1cc(C(=O)NS(=O)(=O)c2ccccc2C)ccc1Cc1cn(C)c2ccc(NC(=O)OC3CCCC3)cc12 [Zafirlukast]
Result: 100%

Ask: Write down measured growth reduction (Staphylococcus aureus Sa2 (MRSA, cystic fibrosis isolate)) for this compound. CN1CCCC(CC2c3ccccc3Sc3ccccc32)C1 (centres undefined) [Metixene hydrochloride hydrate]
Result: 100%

Ask: Provide the reported growth reduction (system: Staphylococcus aureus Sa2 (MRSA, cystic fibrosis isolate)) for COCCN1CCC(N(Cc2ccc(-c3ccc(C(F)(F)F)cc3)cc2)C(=O)Cn2c(SCc3cccc(F)c3F)cc(=O)c3ccccc32)CC1 [Rilapladib]
Result: 100%

Ask: Report growth reduction on Staphylococcus aureus Sa2 (MRSA, cystic fibrosis isolate) for this entry: O=c1[nH]cnc2c1cnn2[C@@H]1O[C@H](CO)[C@@H](O)[C@H]1O [Allopurinol riboside]
Result: 99.9%

Ask: Report measured growth reduction on Staphylococcus aureus Sa2 (MRSA, cystic fibrosis isolate); entry: O=C(O)Cc1ccccc1Nc1c(Cl)cccc1Cl [Diclofenac (diethylamine)]
Result: 100%

Ask: Fill in growth reduction for COc1cccc2c1C(=O)c1c(O)c3c(c(O)c1C2=O)C[C@@](O)(C(=O)CO)C[C@@H]3O[C@H]1C[C@H](N)[C@@H](O)[C@H](C)O1 [Epirubicin (hydrochloride)] tested with Staphylococcus aureus Sa2 (MRSA, cystic fibrosis isolate).
Result: 95%

Ask: Look up and report measured growth reduction (Staphylococcus aureus Sa2 (MRSA, cystic fibrosis isolate)) for the following compound: CN(C)CCOc1ccc(/C(=C(/CCCl)c2ccccc2)c2ccccc2)cc1 [Toremifene (citrate)]
Result: 100%

Ask: For Staphylococcus aureus Sa2 (MRSA, cystic fibrosis isolate), give the measured growth reduction of the entry C[C@]1(O)C[C@@H](c2nc(-c3ccc4ccc(-c5ccccc5)nc4c3)c3c(N)nccn32)C1 [Linsitinib]
Result: 100%

Ask: Determine reported growth reduction for CC1(C)S[C@@H]2[C@H](NC(=O)[C@H](N)c3ccccc3)C(=O)N2[C@H]1C(=O)OCOC(=O)[C@@H]1N2C(=O)C[C@H]2S(=O)(=O)C1(C)C [Sultamicillin (tosylate)] ; test system: Staphylococcus aureus Sa2 (MRSA, cystic fibrosis isolate).
Result: 100%

Ask: Enter growth reduction (test system Staphylococcus aureus Sa2 (MRSA, cystic fibrosis isolate)) for C[C@H]1Cc2c([nH]c3cc(Cl)c(F)cc23)[C@@]2(N1)C(=O)Nc1ccc(Cl)cc12 [Cipargamin]
Result: 100%

Ask: Report growth reduction from Staphylococcus aureus Sa2 (MRSA, cystic fibrosis isolate) testing of C[C@H](Nc1cc(-c2cnn(C)c2)cc(Nc2cnccn2)n1)c1ccc(F)cc1 [Ilginatinib]
Result: 100%

Ask: For Staphylococcus aureus Sa2 (MRSA, cystic fibrosis isolate), give growth reduction of the listed compound: COC(=O)[C@]12CCC(C)(C)C[C@H]1[C@H]1C(=O)C=C3[C@@]4(C)C=C(C#N)C(=O)C(C)(C)[C@@H]4CC[C@@]3(C)[C@]1(C)CC2 [Bardoxolone methyl]
Result: 100%

Ask: State growth reduction (Staphylococcus aureus Sa2 (MRSA, cystic fibrosis isolate)) of Cn1cnc([N+](=O)[O-])c1C[N+](C)(C)C/C=C/C(=O)Nc1cc2c(Nc3ccc(Cl)c(Br)c3)ncnc2cn1 [Tarloxotinib (bromide)] .
Result: 99.6%

Ask: Retrieve growth reduction on Staphylococcus aureus Sa2 (MRSA, cystic fibrosis isolate); query CCOC(=O)Nc1ccc(NCc2ccc(F)cc2)nc1N [Flupirtine (Maleate)]
Result: 100%

Ask: Please report the measured growth reduction for Cc1ccc(-c2c(C(=O)CCl)n(CCCO)c3ncnc(N)c23)cc1 tested on Staphylococcus aureus Sa2 (MRSA, cystic fibrosis isolate).
Result: 99.8%

Ask: GET growth reduction | system: Staphylococcus aureus Sa2 (MRSA, cystic fibrosis isolate) | item: O=C(O)Cc1cc(I)c(Oc2ccc(O)c(I)c2)c(I)c1 [Tiratricol]
Result: 100%

Ask: Send back Staphylococcus aureus Sa2 (MRSA, cystic fibrosis isolate) growth reduction of N#Cc1ccc(Oc2ccc3c(c2)COB3O)cc1 [Crisaborole] only.
Result: 100%

Ask: Look up Staphylococcus aureus Sa2 (MRSA, cystic fibrosis isolate) data: growth reduction of Cc1ccc(Cl)c(Nc2ccccc2C(=O)O)c1Cl [Meclofenamate (sodium)] , then report it.
Result: 97.2%

Ask: Provide growth reduction, recorded with Staphylococcus aureus Sa2 (MRSA, cystic fibrosis isolate), of C=CC[C@@H]1/C=C(\C)C[C@H](C)C[C@H](OC)[C@H]2O[C@@](O)(C(=O)C(=O)N3CCCC[C@H]3C(=O)O[C@H](/C(C)=C/[C@@H]3CC[C@@H](O)[C@H](OC)C3)[C@H](C)[C@@H](O)CC1=O)[C@H](C)C[C@@H]2OC [Tacrolimus (monohydrate)]
Result: 100%

Ask: Quote Staphylococcus aureus Sa2 (MRSA, cystic fibrosis isolate) growth reduction for entry Cc1cc2c(cc1CC(=O)c1sccc1S(=O)(=O)Nc1onc(C)c1Cl)OCO2 [Sitaxsentan (sodium)] .
Result: 98%

Ask: GET growth reduction | system: Staphylococcus aureus Sa2 (MRSA, cystic fibrosis isolate) | item: CCOC(=O)[C@H](CCc1ccccc1)N[C@@H](C)C(=O)N1[C@H](C(=O)O)C[C@@H]2CCC[C@@H]21 [Ramipril]
Result: 92.1%

Ask: Give Staphylococcus aureus Sa2 (MRSA, cystic fibrosis isolate) growth reduction for the following compound: CC(/C=C/C=C(\C)C(=O)O)=C\C=C\C=C(C)\C=C\C=C(/C)C(=O)O [Transcrocetin meglumine salt]
Result: 100%

Ask: # return growth reduction of CNC(=O)c1ccc(Nc2ncc(C(F)(F)F)c(NCc3nccnc3N(C)S(C)(=O)=O)n2)cc1 [Defactinib] (system: Staphylococcus aureus Sa2 (MRSA, cystic fibrosis isolate))
Result: 96.2%

Ask: Lab note: Staphylococcus aureus Sa2 (MRSA, cystic fibrosis isolate) assay, enter growth reduction for C#C[C@]1(O)CC[C@H]2[C@@H]3CCc4cc(OC5CCCC5)ccc4[C@H]3CC[C@@]21C [Quinestrol] here
Result: 100%

Ask: Give growth reduction for CC(C(=O)O)c1ccc2c(c1)CC(=O)c1ccccc1S2 (centres undefined) [Zaltoprofen] tested on Staphylococcus aureus Sa2 (MRSA, cystic fibrosis isolate).
Result: 96.7%

Ask: // fetch growth reduction for CCC[C@H](Oc1cc(C)c(-n2cc(C(F)(F)F)cn2)c(C)c1)c1ccc(C(=O)NCCC(=O)O)cc1 ; system: Staphylococcus aureus Sa2 (MRSA, cystic fibrosis isolate)
Result: 100%

Ask: Write down measured growth reduction (Staphylococcus aureus Sa2 (MRSA, cystic fibrosis isolate)) for this compound. COc1ccc(CN2CCN(C(c3ccc(F)cc3)c3ccc(F)cc3)CC2)c(OC)c1OC [Lomerizine dihydrochloride]
Result: 100%

====

Field: growth reduction. Provide a value for each of the compounds that follow.
# System: Staphylococcus aureus Sa2 (MRSA, cystic fibrosis isolate)
# experiment_description: growth reduction vs untreated control (OD550); higher = stronger antibacterial activity
# test_settings: 0.1 mM; 24 h
Counter-ions that a name gives are not always drawn.
Write the answer as a number in %, unit excluded.

Ask: Identify the reported growth reduction for the following entry. CC1(C)CC=C(c2nc(C3CC(C)(C)OC(C)(C)C3)ccc2NC(=O)c2nc(C#N)c[nH]2)CC1
Result: 99.3

Ask: Output growth reduction of CCN(CC)CCOc1ccc(C(=C(Cl)c2ccccc2)c2ccccc2)cc1 [Clomiphene (citrate)]
Result: 100

Ask: Give the value of growth reduction reported for the following: CCCCCCCCCCCC1=C(O)C(=O)C=C(O)C1=O
Result: 100

Ask: Look up and report measured growth reduction for this entry: Cc1cc([C@H](C)Nc2nccc(N3C(=O)OC[C@@H]3[C@@H](C)F)n2)ncc1-c1ccnc(C(F)(F)F)c1
Result: 100

Ask: // fetch growth reduction given entry CCC(c1ccccc1)c1c(O)c2ccccc2oc1=O (configuration not stated)
Result: 94.6

Ask: Given Cn1c(O)c(C2=c3ccccc3=NC2=O)c2ccccc21 , respond with its growth reduction.
Result: 100

Ask: Please give measured growth reduction of the following entry: CC1=CC(=O)c2ccccc2C1=O
Result: 96.7

Ask: For the compound CC(=O)[C@]1(O)Cc2c(O)c3c(c(O)c2[C@@H](O[C@H]2C[C@H](N)[C@H](O)[C@H](C)O2)C1)C(=O)c1ccccc1C3=O [Idarubicin (hydrochloride)] , give its measured growth reduction value.
Result: 98.1

Ask: State, in one line, measured growth reduction of Clc1ccccc1C(c1ccccc1)(c1ccccc1)n1ccnc1
Result: 100

Ask: Provide only the value of recorded growth reduction for O=C1NCCN1CCN1CCC(c2cn(-c3ccc(F)cc3)c3ccc(Cl)cc23)CC1
Result: 93.6

Ask: Fill in reported growth reduction for this entry: CC1(C)CCC(C)(C)c2cc(Cn3cccn3)c(/C=C/c3ccc(C(=O)O)cc3)cc21
Result: 100

Ask: Output growth reduction of CC(=O)O[C@@H]1CC[C@@]2(C)[C@@H](CC[C@]3(C)[C@@H]2C(=O)C=C2[C@@H]4[C@@H](C)[C@H](C)CC[C@]4(C)CC[C@]23C)[C@@]1(C)C(=O)O
Result: 100

Ask: Answer with the recorded growth reduction of CC(C)=CCC/C(C)=C/CC/C(C)=C/CSc1ccccc1C(=O)O only.
Result: 100

Ask: For C1CCC(C(CC2CCCCN2)C2CCCCC2)CC1 (configuration not stated) [Perhexiline maleate] , write its growth reduction.
Result: 100

Ask: Give growth reduction for the following compound: CCCCCNC(=N)N/N=C/c1c[nH]c2ccc(OC)cc12 [Tegaserod (maleate)]
Result: 100

Ask: Give the reported value of growth reduction for this record: CCCSc1nc(N[C@@H]2C[C@H]2c2ccc(F)c(F)c2)c2nnn([C@@H]3C[C@H](OCCO)[C@@H](O)[C@H]3O)c2n1
Result: 100

Ask: Give the value of growth reduction reported for the following: NC1=NCC2c3ccccc3Cc3ccccc3N12 (configuration not stated) [Epinastine]
Result: 100

Ask: Hello, please tell me recorded growth reduction for this one: Clc1ccc(COC(Cn2ccnc2)c2ccc(Cl)cc2Cl)c(Cl)c1 (configuration not stated) [Miconazole (nitrate)]
Result: 100

Ask: Please list growth reduction recorded for the compound CCN1CCN(c2ccc(Nc3cc(N(C)C(=O)Nc4c(Cl)c(OC)cc(OC)c4Cl)ncn3)cc2)CC1
Result: 100

Ask: Report growth reduction for Cc1ccc(C(=O)N(CCCN)[C@@H](c2oc3cc(Cl)ccc3c(=O)c2Cc2ccccc2)C(C)C)cc1
Result: 100

Ask: Determine from records and report growth reduction for COc1cccc2c1c(O)c(C(=O)N(C)c1ccc(C(F)(F)F)cc1)c(=O)n2C
Result: 92.4

Ask: Dear colleague, please send me the reported growth reduction for CC(OC(=O)NCC1(CC(=O)O)CCCCC1)OC(=O)C(C)C (configuration not stated) when you can.
Result: 90.4

Ask: Using known records, supply growth reduction for NC(=O)c1cccc2cn(-c3ccc([C@@H]4CCCNC4)cc3)nc12 [Niraparib (tosylate)]
Result: 99.5

Ask: Please report growth reduction for the following compound: CCc1cc(-c2noc(-c3cc(OC)nc(C4CCCC4)c3)n2)cc(C)c1OC[C@@H](O)CO
Result: 100

Ask: Give growth reduction for c1ccc(-c2ccc(C(c3ccccc3)n3ccnc3)cc2)cc1 (configuration not stated)
Result: 100

Ask: Provide one value: measured growth reduction of CCCCCCCCCCCCCCCCCCOP(=O)([O-])OC1CC[N+](C)(C)CC1
Result: 96.9

Ask: Please give measured growth reduction of the following entry: CC[C@H]1[C@@H](O)[C@@H]2[C@H](CC[C@]3(C)[C@@H]([C@H](C)CCC(=O)O)CC[C@@H]23)[C@@]2(C)CC[C@@H](O)C[C@@H]12
Result: 94.4

Ask: Read off the recorded growth reduction for Cc1cc(Nc2ncc(Cl)c(Nc3ccccc3S(=O)(=O)C(C)C)n2)c(OC(C)C)cc1C1CCNCC1 [Ceritinib dihydrochloride]
Result: 100

Ask: Check the records and state growth reduction for CCOc1cc2ncc(C#N)c(Nc3ccc(F)c(Cl)c3)c2cc1NC(=O)/C=C/CN(C)C
Result: 90.6

Ask: Tell us which growth reduction value is on record for Cc1c(Cl)cccc1Nc1ccccc1C(=O)O
Result: 100

Ask: Specify reported growth reduction for the compound shown: CNC(=O)c1cc(Oc2ccc(NC(=O)Nc3ccc(Cl)c(C(F)(F)F)c3)c(F)c2)ccn1 [Regorafenib (monohydrate)]
Result: 100

Ask: Tell me measured growth reduction for CC(C)COc1ccc(CNC(=O)N(Cc2ccc(F)cc2)C2CCN(C)CC2)cc1 [Pimavanserin tartrate] please.
Result: 100
